Tested on: Lepidium sativum L. roots
measurement-conditions: 0.50% (w/w) compound in the medium, 24 h incubation, mean(±SD), n = 3
measurement-kind: Inhibition of the root growth in pregerminated Lepidium sativum seeds (IRG, %)

Consider the following illustrative entries.
[[record]]
compound = "NC(CCC(=O)O)C(=O)O.OCCN(CCO)CCO.OCCN(CCO)CCO (stereo not shown) [[TEA]2[Glu]]"
data_value = "44.4(±2.2) %"

[[record]]
compound = "NC(=O)CCC(N)C(=O)O.OCCN(CCO)CCO (stereo not shown) [[TEA][Gln]]"
data_value = "63.6(±1.3) %"

[[record]]
compound = "NC(CO)C(=O)O.OCCN(CCO)CCO [[TEA][Ser]]"
data_value = "25.3%"

[[record]]
compound = "N=C(N)NCCC[C@H](N)C(=O)O.OCCN(CCO)CCO [[TEA][Arg]]"
data_value = "56.5(±1.4) %"


Incoming: Identify the reported Inhibition of the root growth in pregerminated Lepidium sativum seeds (IRG, %) for the following entry. CC(N)C(=O)O.OCCN(CCO)CCO [[TEA][Ala]]
Outgoing: 36.1(±1.2) %

Incoming: Identify the reported Inhibition of the root growth in pregerminated Lepidium sativum seeds (IRG, %) for the following entry. NC(CCC(=O)O)C(=O)O.OCCN(CCO)CCO (stereo not shown) [[TEA][Glu]]
Outgoing: 21%

Incoming: Identify the reported Inhibition of the root growth in pregerminated Lepidium sativum seeds (IRG, %) for the following entry. N[C@@H](CC(=O)O)C(=O)O.OCCN(CCO)CCO.OCCN(CCO)CCO [[TEA]2[Asp]]
Outgoing: 36.6(±1.6) %

Incoming: Identify the reported Inhibition of the root growth in pregerminated Lepidium sativum seeds (IRG, %) for the following entry. CC(C)C[C@H](N)C(=O)O.OCCN(CCO)CCO [[TEA][Leu]]
Outgoing: 39.9(±1.5) %

Incoming: Identify the reported Inhibition of the root growth in pregerminated Lepidium sativum seeds (IRG, %) for the following entry. CCC(C)C(N)C(=O)O.OCCN(CCO)CCO [[TEA][Ile]]
Outgoing: 36.9(±1.6) %

Incoming: Identify the reported Inhibition of the root growth in pregerminated Lepidium sativum seeds (IRG, %) for the following entry. CC(O)C(N)C(=O)O.OCCN(CCO)CCO [[TEA][Thr]]
Outgoing: 66.6(±1.3) %

---

Test system: Lepidium sativum L. roots
measurement-conditions: 0.50% (w/w) compound in the medium, 24 h incubation, mean(±SD), n = 3
Entries and their measured Inhibition of the root growth in pregerminated Lepidium sativum seeds (IRG, %) follow.

Consider the following illustrative entries.
[[record]]
molecule = "N[C@@H](Cc1c[nH]c2ccccc12)C(=O)O.OCCN(CCO)CCO [[TEA][Trp]]"
data_value = "54.7(±1.0) %"

[[record]]
molecule = "O=C(O)[C@@H]1CCCN1.OCCN(CCO)CCO [[TEA][Pro]]"
data_value = "67.7(±1.1) %"

[[record]]
molecule = "NCC(=O)O.OCCN(CCO)CCO [[TEA][Gly]]"
data_value = "62.3(±1.3) %"

[[record]]
molecule = "N[C@@H](Cc1ccccc1)C(=O)O.OCCN(CCO)CCO [[TEA][Phe]]"
data_value = "53.1(±1.3) %"

[[record]]
molecule = "NC(=O)C[C@H](N)C(=O)O.OCCN(CCO)CCO [[TEA][Asn]]"
data_value = "42.7(±1.5) %"

[[record]]
molecule = "NCCCC[C@H](N)C(=O)O.OCCN(CCO)CCO [[TEA][Lys]]"
data_value = "62.3(±1.2) %"


Incoming: Identify the reported Inhibition of the root growth in pregerminated Lepidium sativum seeds (IRG, %) for the following entry. N[C@@H](CC(=O)O)C(=O)O.OCCN(CCO)CCO [[TEA][Asp]]
Outgoing: 12.9%

Incoming: Identify the reported Inhibition of the root growth in pregerminated Lepidium sativum seeds (IRG, %) for the following entry. CC(C)[C@H](N)C(=O)O.OCCN(CCO)CCO [[TEA][Val]]
Outgoing: 54.8(±2.6) %

Incoming: Identify the reported Inhibition of the root growth in pregerminated Lepidium sativum seeds (IRG, %) for the following entry. N[C@@H](Cc1c[nH]cn1)C(=O)O.OCCN(CCO)CCO [[TEA][His]]
Outgoing: 37.1(±2.0) %

Incoming: Identify the reported Inhibition of the root growth in pregerminated Lepidium sativum seeds (IRG, %) for the following entry. CSCC[C@H](N)C(=O)O.OCCN(CCO)CCO [[TEA][Met]]
Outgoing: 30.1(±3.8) %
